Ref: PubChem BioAssay AID2060497

Test system: 317291-083-R-J1-PDC complex spheroids, viability;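 also: spheroids exposed to compounds for one week before readout; percent viability relative to DMSO vehicle wells taken as 100%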
Assay: Anticancer human tumor 317291-083-R-J1-PDC patient-derived soft tissue sarcoma cell line growth inhibition [GQUAD]
Details: second compound 10 µM; first compound 0.316 µM; hits give low values
MEASUREMENT_LABEL: viability, T/C (%)

>>> observed_result("CC1COCCN1c1cc(C2(O)CC3CCC(C2)O3)c2cnn(-c3ccn[nH]3)c2n1 (stereo not given) + CN(C)c1ccc(Nc2c3ccc(NC(=O)CCN4CCCC4)cc3nc3cc(NC(=O)CCN4CCCC4)ccc23)cc1")
2.46
>>> observed_result("CC1COCCN1c1cc(-c2ccnn2C)c2ccnc(-c3ccn[nH]3)c2n1 (stereo not given) + Cc1cnc(CNC(=O)c2c(=O)c3ccc(N4CCCN(C)CC4)nc3n3c2sc2ccccc23)cn1")
13.7
>>> observed_result("COc1cccc2c1C(=O)c1c(O)c3c(c(O)c1C2=O)CC(O)(C(=O)CO)CC3OC1CC(N)C(O)C(C)O1 (stereo not given) + Cc1[nH]c2ccc(F)cc2c1-c1nc2c3cccnc3c3ncccc3c2[nH]1")
16.9
>>> observed_result("Cc1cccc(N(C)C(=O)C2C(O)CCN2c2nc(C)cc(C(F)(F)F)c2C#N)c1 (stereo not given) + CN(C)c1ccc(Nc2c3ccc(NC(=O)CCN4CCCC4)cc3nc3cc(NC(=O)CCN4CCCC4)ccc23)cc1")
10.1
>>> observed_result("COc1ccc([C@@H](O)c2cc(-c3ncnc4cc(N5CCOCC5)ccc34)c(F)cc2Cl)nn1 + CN(C)c1ccc(Nc2c3ccc(NC(=O)CCN4CCCC4)cc3nc3cc(NC(=O)CCN4CCCC4)ccc23)cc1")
3.27
